Where do the numbers come from? From the supplement of paper PMC10126150.

test system: ATP; assay: switch fluorescence ratio, 500 uM ATP over buffer (Cy3 cluster intensity, sum of 5 cycles each) (fold (ratio)); higher = stronger signal-on switching upon ATP binding; sequences stand for … in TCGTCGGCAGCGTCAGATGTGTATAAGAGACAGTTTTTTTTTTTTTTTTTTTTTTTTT…TC; conditions: aptamer strand: ATP DNA aptamer (quencher-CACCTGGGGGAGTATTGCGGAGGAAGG + anchor), 100 nM annealed; ATP concentration: 500 uM;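 note: ATP exposure 15 min at 22 °C before imaging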
measured_property: switch fluorescence ratio
Numbers only.

// each listed sequence needs a value for switch fluorescence ratio
1. AATTTATGGG
2. TCGAGCCTTT
3. GGGGAGGAAG
4. GGGTTTTTAG
5. TTACATGTTC
6. GATAGTAAGG
7. TGATATCACT
8. TCAAAAAGTG

Solution:
1. 0.986
2. 0.991
3. 0.997
4. 0.994
5. 0.996
6. 0.979
7. 0.996
8. 0.989

// each listed sequence needs a value for switch fluorescence ratio
1. TATAGAGGTT
2. ACGGGGGACT
3. TTCTGTTTCC
4. TGCCGGGGCT
5. GCACGGGCAT

Solution:
1. 0.992
2. 1.02
3. 1.12
4. 0.967
5. 1.01

// each listed sequence needs a value for switch fluorescence ratio
1. AGGAATTCGG
2. CCATTAAGTC

Solution:
1: 0.999; 2: 1.02

// each listed sequence needs a value for switch fluorescence ratio
1. GGATGCAGCT
2. CGGGTCGCGG
3. CGGCCGTATA

Solution:
1: 1.12; 2: 0.992; 3: 0.998

----------
Please provide measured switch fluorescence ratio for the entries that follow.
tested on: ATP; assay: switch fluorescence ratio, 500 uM ATP over buffer (Cy3 cluster intensity, sum of 5 cycles each) (fold (ratio)); higher = stronger signal-on switching upon ATP binding; sequences stand for … in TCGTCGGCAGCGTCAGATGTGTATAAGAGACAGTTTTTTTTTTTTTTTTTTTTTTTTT…TC; details: aptamer strand: ATP DNA aptamer (quencher-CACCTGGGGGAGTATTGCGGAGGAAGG + anchor), 100 nM annealed; ATP concentration: 500 uM;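 note: ATP exposure 15 min at 22 °C before imaging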
Answers are plain numbers.

Consider the following illustrative entries.
- sequence_string: "ATAGCCGTGC"
  switch fluorescence ratio: 1.02
- sequence_string: "CCATCGCCCT"
  switch fluorescence ratio: 1.17
- sequence_string: "TGGCAGACGG"
  switch fluorescence ratio: 1.01
- sequence_string: "CATTTGTTTT"
  switch fluorescence ratio: 1.02
- sequence_string: "GTTTGCACTG"
  switch fluorescence ratio: 1.04
- sequence_string: "TGGTCATTGC"
  switch fluorescence ratio: 1.06
- sequence_string: "GGTTGATGTT"
  switch fluorescence ratio: 0.969
- sequence_string: "TAAAGTTAGA"
  switch fluorescence ratio: 0.989
- sequence_string: "ATTTTGTGAT"
  switch fluorescence ratio: 0.994
- sequence_string: "GTATTGAGAT"
  switch fluorescence ratio: 0.973

// each listed sequence needs a value for switch fluorescence ratio
1. GGGGGGTTCC
2. TTATTCCCGA
3. CGAAGAGGTG
4. GTGGTAAAAG
5. AAGTCGGTGG
6. GGTCGGGGGG
7. ATGAAATGTT

Solution:
1: 1.02; 2: 0.979; 3: 1.07; 4: 0.984; 5: 0.987; 6: 1.03; 7: 1.01

----------
tested on: ATP; experiment: switch fluorescence ratio, 500 uM ATP over buffer (Cy3 cluster intensity, sum of 5 cycles each) (fold (ratio)); higher = stronger signal-on switching upon ATP binding; sequences stand for … in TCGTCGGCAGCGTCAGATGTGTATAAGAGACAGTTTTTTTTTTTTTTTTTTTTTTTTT…TC; conditions: aptamer strand: ATP DNA aptamer (quencher-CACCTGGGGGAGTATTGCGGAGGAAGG + anchor), 100 nM annealed; ATP concentration: 500 uM;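 note: ATP exposure 15 min at 22 °C before imaging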
Please provide measured switch fluorescence ratio for the entries that follow.
Give bare numbers.

// each listed sequence needs a value for switch fluorescence ratio
1. AGGAAGGGTG
2. CCTGGCTTTT

Solution:
1. 1.04
2. 1.05

// each listed sequence needs a value for switch fluorescence ratio
1. TTTTTCATCA
2. TCGGCTTTGG
3. ATATGGGTTT

Solution:
1. 0.982
2. 0.964
3. 1.01

// each listed sequence needs a value for switch fluorescence ratio
1. CGACTATCGC
2. GACTAACGCA
3. AACTGAGTTT
4. GGTATCTCGA
5. TTGGGTGAGG
6. CTGGTATGGA

Solution:
[1.12, 1.25, 1.01, 1.03, 0.98, 0.971]

// each listed sequence needs a value for switch fluorescence ratio
1. TTGTCGCGTA
2. AAGAAGCAGG
3. GATGATGGGC

Solution:
1. 1.01
2. 1.06
3. 0.996

----------
test system: ATP; assay: switch fluorescence ratio, 500 uM ATP over buffer (Cy3 cluster intensity, sum of 5 cycles each) (fold (ratio)); higher = stronger signal-on switching upon ATP binding; sequences stand for … in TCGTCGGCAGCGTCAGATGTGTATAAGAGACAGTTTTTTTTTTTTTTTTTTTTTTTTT…TC; conditions: aptamer strand: ATP DNA aptamer (quencher-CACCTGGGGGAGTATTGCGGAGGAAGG + anchor), 100 nM annealed; ATP concentration: 500 uM;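 note: ATP exposure 15 min at 22 °C before imaging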
Please provide measured switch fluorescence ratio for the entries that follow.

Consider the following illustrative entries.
- sequence_string: "TCTTTGTATG"
  switch fluorescence ratio: 0.991
- sequence_string: "TGCCAGTGCC"
  switch fluorescence ratio: 1.04
- sequence_string: "GGGGTACGAG"
  switch fluorescence ratio: 1.02
- sequence_string: "AAAAATTCCG"
  switch fluorescence ratio: 1.04
- sequence_string: "AAGATTTTAT"
  switch fluorescence ratio: 0.977

// each listed sequence needs a value for switch fluorescence ratio
1. CTCAACGTTC
2. CAGAGAAGGC
3. TTGGAGTGCT

Solution:
1. 1.09
2. 0.991
3. 1.04

// each listed sequence needs a value for switch fluorescence ratio
1. AGAAAAACCG
2. TTATGGTTCG
3. TTCACGTTTT
4. AAGATTTAGG
5. GATAGCCGAT
6. AGTTTGGTTG
7. AGGGAGGTGG

Solution:
1.05
0.954
1.03
1.01
1.03
0.991
1.02

// each listed sequence needs a value for switch fluorescence ratio
1. AATGTGCTGG
2. TGGGGTAGC
3. ATTTTAGAGC
4. GGGAGTGAGA
5. TAATTTGGAA

Solution:
[0.993, 0.998, 1.05, 1.03, 1.01]

Exercise: Return reported switch fluorescence ratio. Input sequence: AGTGCCCAGG
Solution: 2.4

----------
Please provide measured switch fluorescence ratio for the entries that follow.
test system: ATP; test: switch fluorescence ratio, 500 uM ATP over buffer (Cy3 cluster intensity, sum of 5 cycles each) (fold (ratio)); higher = stronger signal-on switching upon ATP binding; sequences stand for … in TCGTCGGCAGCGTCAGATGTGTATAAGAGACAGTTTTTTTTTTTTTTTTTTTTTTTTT…TC; details: aptamer strand: ATP DNA aptamer (quencher-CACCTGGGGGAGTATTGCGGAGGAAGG + anchor), 100 nM annealed; ATP concentration: 500 uM;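 note: ATP exposure 15 min at 22 °C before imaging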
Numbers only.

Consider the following illustrative entries.
- sequence_string: "CGAACTGAGG"
  measured_value: 0.985
- sequence_string: "TGGGAACACT"
  measured_value: 1.01
- sequence_string: "CTTGCTTTTT"
  measured_value: 0.948
- sequence_string: "TAGCGTGAGC"
  measured_value: 1.02
- sequence_string: "GTCATTGGAG"
  measured_value: 1.01

// each listed sequence needs a value for switch fluorescence ratio
1. GAGATAAGCT
2. GTGTGGGGGG
3. TCGATAATTA
4. TAGCAATGGC
5. GTCAGCTTGC
6. GATAACCTTT

Solution:
[1.04, 1.02, 0.97, 2.42, 1, 1.07]

----------
Please provide measured switch fluorescence ratio for the entries that follow.
test system: ATP; assay: switch fluorescence ratio, 500 uM ATP over buffer (Cy3 cluster intensity, sum of 5 cycles each) (fold (ratio)); higher = stronger signal-on switching upon ATP binding; sequences stand for … in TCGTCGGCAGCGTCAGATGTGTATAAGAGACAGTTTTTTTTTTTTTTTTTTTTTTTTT…TC; conditions: aptamer strand: ATP DNA aptamer (quencher-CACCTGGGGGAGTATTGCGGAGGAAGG + anchor), 100 nM annealed; ATP concentration: 500 uM;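 note: ATP exposure 15 min at 22 °C before imaging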
Answers are plain numbers.

Consider the following illustrative entries.
- sequence_string: "GAGGGGTGTG"
  switch fluorescence ratio: 0.993
- sequence_string: "TTTGAAAAGG"
  switch fluorescence ratio: 1.01
- sequence_string: "TAATTGTAGG"
  switch fluorescence ratio: 0.98
- sequence_string: "GGGTGATTGA"
  switch fluorescence ratio: 0.988
- sequence_string: "TCATTGCTTT"
  switch fluorescence ratio: 1
- sequence_string: "TTATTGGCTT"
  switch fluorescence ratio: 0.99
- sequence_string: "TAACGCAGCT"
  switch fluorescence ratio: 1.07
- sequence_string: "AGTAGGGGT"
  switch fluorescence ratio: 1.02
- sequence_string: "AATAAGTGGT"
  switch fluorescence ratio: 0.989
- sequence_string: "GAGTTATTTA"
  switch fluorescence ratio: 0.982

// each listed sequence needs a value for switch fluorescence ratio
1. TAAAAATATA
2. AAGTTATGCT
3. CGGGAACGGT
4. TTTTGATGTA
5. GAGAATGGGG
6. GGGTTATAGG
7. GCTCCCTTTC

Solution:
1: 1; 2: 1; 3: 1.01; 4: 0.977; 5: 0.983; 6: 0.978; 7: 1.84

// each listed sequence needs a value for switch fluorescence ratio
1. TATGAGTATT
2. GTGGGGGCTG
3. ATGGCAAAAG
4. AGAGGGGCGG

Solution:
1: 0.987; 2: 0.988; 3: 1.01; 4: 1

// each listed sequence needs a value for switch fluorescence ratio
1. TGACGGGGGA
2. TTTTTAAGGG
3. ATTTTCAACT
4. AATTTGAATT
5. TGACGTTAAG
6. ACTAGTATTA

Solution:
1. 0.986
2. 0.996
3. 1.03
4. 0.98
5. 1.03
6. 1
